# target: human ether-à-go-go-related gene (hERG) potassium channel (human);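 further: peak tail current of the secondary pulse compared with the same well before compound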
# Sequence (Q12809 whole entry, looked up): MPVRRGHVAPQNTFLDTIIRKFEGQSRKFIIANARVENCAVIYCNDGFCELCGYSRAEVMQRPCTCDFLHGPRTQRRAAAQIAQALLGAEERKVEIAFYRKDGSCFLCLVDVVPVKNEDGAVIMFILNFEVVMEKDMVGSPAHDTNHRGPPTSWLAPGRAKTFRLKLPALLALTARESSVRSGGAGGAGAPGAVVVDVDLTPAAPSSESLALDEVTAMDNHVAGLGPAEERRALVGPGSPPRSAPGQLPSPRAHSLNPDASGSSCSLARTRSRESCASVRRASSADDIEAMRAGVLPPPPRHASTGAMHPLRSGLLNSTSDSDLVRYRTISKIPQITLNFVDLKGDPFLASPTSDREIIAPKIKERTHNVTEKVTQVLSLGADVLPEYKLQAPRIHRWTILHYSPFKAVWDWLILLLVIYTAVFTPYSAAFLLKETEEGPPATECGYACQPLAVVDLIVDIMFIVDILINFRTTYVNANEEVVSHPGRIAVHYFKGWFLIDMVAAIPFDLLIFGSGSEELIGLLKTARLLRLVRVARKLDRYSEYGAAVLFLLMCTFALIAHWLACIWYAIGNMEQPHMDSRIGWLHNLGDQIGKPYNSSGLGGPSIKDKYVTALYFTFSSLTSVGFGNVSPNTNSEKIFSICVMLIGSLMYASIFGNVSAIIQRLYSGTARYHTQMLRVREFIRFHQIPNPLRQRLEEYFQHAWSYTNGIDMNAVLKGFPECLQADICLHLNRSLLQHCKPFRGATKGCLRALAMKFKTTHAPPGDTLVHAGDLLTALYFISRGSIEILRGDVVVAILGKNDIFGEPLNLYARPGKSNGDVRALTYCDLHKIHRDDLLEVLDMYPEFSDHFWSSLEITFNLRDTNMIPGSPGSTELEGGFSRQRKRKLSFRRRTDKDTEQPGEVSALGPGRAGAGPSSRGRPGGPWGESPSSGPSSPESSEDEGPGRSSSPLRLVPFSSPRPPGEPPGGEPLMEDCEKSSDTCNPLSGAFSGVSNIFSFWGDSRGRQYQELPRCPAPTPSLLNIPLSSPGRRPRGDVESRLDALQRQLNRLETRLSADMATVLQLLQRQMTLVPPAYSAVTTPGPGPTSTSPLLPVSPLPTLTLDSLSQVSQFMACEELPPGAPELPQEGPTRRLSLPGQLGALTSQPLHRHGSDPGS
# experiment_summary: primary screen, population patch clamp on CHO cells stably expressing hERG; higher = less effect of the substance
The whole screen tested about 310,000 compounds, of which about 14,000 (4.5%) showed an effect of 50% or more. Effects have a minus sign here. The sample as a whole holds a higher share of strong results than the screen did.
# reported hERG current change (%, negative = inhibition) at 10uM; entries follow
The figure you give is taken to be in %; do not add the unit.

Reference set (3 entries):
C1=C(CCNc2ncnc3c2cnn3-c2ccccc2)CCCC1
8.79
CCOc1nc(Nc2ccc([N+](=O)[O-])cc2)nc(NC(C)(C)C)n1
12.2
O=C(Nc1ccc(Br)cc1)Nc1ccccc1Cl
19.7

Consider the additional compound presented here.
Answer with reported hERG current change (%, negative = inhibition) at 10uM of CCOc1nc(NCCO)nc(Nc2ccc([N+](=O)[O-])cc2)n1 -9.66
